Assay: Human HepG2 cell viability assay in 384 well format
Format: toxicity, cell-based
Parameters: dose 125 nL, time 70.5 hour; concentration not given beside the values
Details: HepG2 cells, read-out: Inhibition
Quick list: cytotoxicity at 70.5 h per entry.
Observation type: cytotoxicity at 70.5 h (%)

Molecule | Observation type | Result value
CCOC(C)c1noc(CN2CCCNCC2)n1 (configuration not stated) | cytotoxicity at 70.5 h | -5.58
Cc1ncsc1C(=O)NC1CCN(CCC(=O)Nc2ccccc2)CC1 | cytotoxicity at 70.5 h | -1.32
CC(=O)Nc1c(C)noc1/C=C\c1ccc(S(=O)(=O)NC2CC2)cc1 | cytotoxicity at 70.5 h | -1.71
O=C([C@H]1COC[C@H]2CN(C3CCCCC3)C[C@H]21)N1CCOCC1 | cytotoxicity at 70.5 h | -9.52
CCc1cccc(N2CCC(NC(=O)C3CCOCC3)CC2)c1 | cytotoxicity at 70.5 h | -5.26
Cc1nn(C)cc1-c1cc(C(F)(F)F)nc(NC2CCCCC2)n1 | cytotoxicity at 70.5 h | -9.44
CN(C)C(=O)NCc1ncn2c1CN(Cc1cccs1)CCC2 | cytotoxicity at 70.5 h | -3.13
CN(C)S(=O)(=O)c1ccc(-c2nc(C#N)c(NC3CCCCC3)o2)o1 | cytotoxicity at 70.5 h | -9.49
CCn1c(CN(C)C(=O)c2ccc(N(C)C)nc2)nc2ccccc21 | cytotoxicity at 70.5 h | -14
Cc1cccc(OCCNC(=O)C(C)S(=O)(=O)C2CCCC2)c1 (configuration not stated) | cytotoxicity at 70.5 h | -9.37
O=C1CSc2ccccc2N1Cc1noc(C2CCCO2)n1 (configuration not stated) | cytotoxicity at 70.5 h | -5.67
Cc1nn(C)c(C)c1Cc1nc(N(C)C)no1 | cytotoxicity at 70.5 h | -0.362
